- Test system: Klebsiella aerogenes
- test_details: Antimicrobial activity against multidrug resistant Enterobacter aerogenes isolate 13 by broth dilution method
- Assay type: functional
outcome_measure: MIC (mg/L)
Entry rule: numbers only, all in mg/L.

Query :: # MIC lookup, item `CCn1cc(C(=O)O)c(=O)c2cc(F)c(N3CCNCC3)cc21`
Result :: 512

Query :: # MIC lookup, item `CO/N=C(\C(=O)N[C@@H]1C(=O)N2C(C(=O)[O-])=C(C[N+]3(C)CCCC3)CS[C@H]12)c1csc(N)n1`
Result :: 64

====

Below, each of the compounds is paired with its reported MIC value.
- Tested on: Klebsiella aerogenes
- test_details: Antimicrobial activity against multidrug resistant Enterobacter aerogenes isolate 25 by broth dilution method in presence of 26.3 mg/L efflux pump inhibitor phenylalanine-arginine-beta-naphthylamide
- Assay type: functional
Entry rule: numbers only, all in µg/mL.

Worked cases, MIC given:
- CCn1cc(C(=O)O)c(=O)c2cc(F)c(N3CCNCC3)cc21 [NORFLOXACIN]: 128
- CN(C)[C@@H]1C(O)=C(C(N)=O)C(=O)[C@@]2(O)C(O)=C3C(=O)c4c(O)cccc4[C@@](C)(O)[C@H]3C[C@@H]12 [TETRACYCLINE]: 4
- C[C@@H]1CN(c2c(F)c(N)c3c(=O)c(C(=O)O)cn(C4CC4)c3c2F)C[C@H](C)N1 [SPARFLOXACIN]: 8

Query compound follows.
Query :: # MIC lookup, item O=C(N[C@H](CO)[C@H](O)c1ccc([N+](=O)[O-])cc1)C(Cl)Cl [CHLORAMPHENICOL]
Result :: 64

====

- System: Klebsiella aerogenes
- test_details: Antimicrobial activity against multidrug resistant Enterobacter aerogenes isolate 5 by broth dilution method
- Assay type: functional
Below, each of the compounds is paired with its reported MIC value.
Entry rule: numbers only, all in µg/mL.

Worked cases, MIC given:
• C[C@@H]1CN(c2c(F)c(N)c3c(=O)c(C(=O)O)cn(C4CC4)c3c2F)C[C@H](C)N1 [SPARFLOXACIN] = 512
• C[C@@H](O)[C@H]1C(=O)N2C(C(=O)O)=C(SCCNC=N)C[C@H]12 [IMIPENEM ANHYDROUS] = 2
• CN(C)[C@@H]1C(O)=C(C(N)=O)C(=O)[C@@]2(O)C(O)=C3C(=O)c4c(O)cccc4[C@@](C)(O)[C@H]3C[C@@H]12 [TETRACYCLINE] = 128
• CO/N=C(\C(=O)N[C@@H]1C(=O)N2C(C(=O)[O-])=C(C[N+]3(C)CCCC3)CS[C@H]12)c1csc(N)n1 = 64

Query compound follows.
Query :: # MIC lookup, item CCn1cc(C(=O)O)c(=O)c2cc(F)c(N3CCNCC3)cc21 [NORFLOXACIN]
Result :: 512

====

Below, each of the compounds is paired with its reported MIC value.
- Test system: Klebsiella pneumoniae
- test_details: Antimicrobial activity against multidrug resistant Klebsiella pneumoniae isolate 1 by broth dilution method
- Type: functional
Entry rule: numbers only, all in mg/L.

Query :: # MIC lookup, item `CO/N=C(\C(=O)N[C@@H]1C(=O)N2C(C(=O)[O-])=C(C[N+]3(C)CCCC3)CS[C@H]12)c1csc(N)n1`
Result :: 64

Query :: # MIC lookup, item C[C@@H](O)[C@H]1C(=O)N2C(C(=O)O)=C(SCCNC=N)C[C@H]12 [IMIPENEM ANHYDROUS]
Result :: 0.25

Query :: # MIC lookup, item CCn1cc(C(=O)O)c(=O)c2cc(F)c(N3CCNCC3)cc21 [NORFLOXACIN]
Result :: 2

Query :: # MIC lookup, item O=C(N[C@H](CO)[C@H](O)c1ccc([N+](=O)[O-])cc1)C(Cl)Cl [CHLORAMPHENICOL]
Result :: 8

Reference source: ChEMBL document CHEMBL1649134
